# experiment: Fenton reaction degradation of PAHs in Quakertown silt loam
# condition.context: Hydrogen Peroxide (2g), No FeSO4; Quakertown silt loam
Listed below: % remaining in soil values for each entry.
Numbers only; they are read as a %.

In the examples that follow, each entry is paired with its recorded % remaining in soil.
Memo: "c1cc2ccc3cccc4ccc(c1)c2c34" , reported % remaining in soil: 88.3

Memo: "c1ccc2c(c1)cc1ccc3cccc4ccc2c1c34" , reported % remaining in soil: 73.2

Next up:
Memo: "c1ccc2cc3ccccc3cc2c1" , reported % remaining in soil: 92.7

====

Listed below: % remaining in soil values for each entry.
# experiment: Fenton reaction degradation of PAHs in Quakertown silt loam
# condition.context: ratio 10:1 (footnote e); [H2O2:FeSO4] = [1.0 g:0.1 g]; 24 h; Quakertown silt loam

In the examples that follow, each entry is paired with its recorded % remaining in soil.
Memo: "c1ccc2cc3ccccc3cc2c1" , reported % remaining in soil: 79.3b %

Memo: "c1ccc2c(c1)ccc1c3ccccc3ccc21" , reported % remaining in soil: 98.2c %

Memo: "c1ccc2c(c1)cc1ccc3cccc4ccc2c1c34" , reported % remaining in soil: 60.9d %

Next up:
Memo: "c1cc2ccc3cccc4ccc(c1)c2c34" , reported % remaining in soil: 26.3d %
